target entity: RSV F protein of recombinant mKate-RSV, subtype A (strain A2) (Respiratory syncytial virus subtype A …, UniProt P03420 26-574)
assay text: cell-based or functional assay
experimental readout: Neut IC50 subtype A (µg/mL)
API: value field is a number in µg/mL; no unit string.

binder="ADI-14495 (antibody, V domains shown, full-length IgG (yeast-expressed); also called Antibody Number 56; Ab# 56) VH: QITLKESGPTLVKPTQTLTLTCSFSGFSLTTRGVGVGWVRQPPGKALECLGFVYWDDDKRYSPSLRSRLTISEDTSKNQVVLTMTNMDPLDTATYYCVHSDLYDRGGYYLFYFDYWGQGTLVTVSS VL: DIVLTQSPSSLSASVGDRVTITCRASQPIASYLNWYQHKPGKAPKLLIYAASSLQSGVSSTFSGRGSGTDFTLTITALQPEDFAIYYCQQSYTFPYTFGQGTKVDIK" experimental_readout="Neut IC50 subtype A" numeric_readout=0.864

Which Neut IC50 subtype A is listed for ADI-14460 (antibody, V domains shown, full-length IgG (yeast-expressed); also called Antibody Number 23; Ab# 23) VH: QVQLQQWGAGLLKPSETLSLSCTVSGGVFGNYFWSWVRQAPGKGLEWIGEINQIGTTNYSPSASLKSRVTISVDPSRNQFSLSLRSVTAADTARYYCTRSETSDYFDSSGYAFHIWGEGTMVTVSS VL: LPVLTQPASVSGSPGQSITISCSGISSDGGRYNYVSWYQQHPGKAPKLLIYDDSNWPLGVSHRFSGSKSGNTASLTISGLRAEDEADYYCGSYTDTNRLFGGGTQLTVL ?
0.102
